# credit: patent EP4792821A2

Overview of recorded EC50 (nM), plaque reduction, hPIV3 C243 on LLC-MK2 cells for various binders
- assayed_target: F protein of hPIV Type 3 (hPIV3 C243) (human Parainfluenza Virus type 3 (hPIV3 …))
- experiment_description: cell-based or functional assay
*1 amine or outer side, *2 acyl side, *3 side chain or, on linkers, in order; H or OH if unused. Side-chain parts run from the residue outwards. The star is where a group is joined. Succinyl(4-O-cholesteryl) = CC(C)CCC[C@@H](C)[C@H]1CC[C@H]2[C@@H]3CC=C4C[C@@H](OC(=O)CCC(=O)*)CC[C@]4(C)[C@H]3CC[C@]12C; Suc = O=C(CCC(=O)[*:2])[*:1]
# number only, unit nM dropped from output

binder: Ac-DEFDKKIEEVNKKIEESLKKIEESDKKLEEVNEAAAKK([Suc-Succinyl(4-O-cholesteryl)])-NH2 [Compound 14]
recorded_result: 31.4

Q. Give its EC50 (nM), plaque reduction, hPIV3 C243 on LLC-MK2 cells value. Item: Ac-WDEFDASIEEVNRRIEESLRRIEESDRRLEEVEAAAKK([Suc-Succinyl(4-O-cholesteryl)])-NH2 [Compound 43]
A. 16.1

Q. Give its EC50 (nM), plaque reduction, hPIV3 C243 on LLC-MK2 cells value. Item: Ac-DEFDKKIEEVNKKIEESLKKIEESDKKLEEVEAAAKK([Suc-Succinyl(4-O-cholesteryl)])-NH2 [Compound 21]
A. 21.3

Q. Give its EC50 (nM), plaque reduction, hPIV3 C243 on LLC-MK2 cells value. Item: Ac-YDELVFDASQVNEKINQSLEKIRKSDELLHNVGSGSGK([Suc-Succinyl(4-O-cholesteryl)])-NH2 [Compound 25]
A. 29.4

Q. Give its EC50 (nM), plaque reduction, hPIV3 C243 on LLC-MK2 cells value. Item: Ac-DEFDKKKIEEVNKKIEESLKKIEESDKKLEEVGSGSGK([Suc-Succinyl(4-O-cholesteryl)])-NH2 [Compound 15]
A. 20.7
